Test system: UDP-glycosyltransferase GpUGT23
Assay: In vitro glycosyltransferase assay of purified recombinant GpUGT23 with ginsenoside substrates and UDP-glucose
Format: biochemical, Dolwoe (Gynostemma pentaphyllum)
Conditions: purified GpUGT23 30 μg, ginsenoside 5 mM, UDP-glucose 50 mM, 10 mM PBS pH 7, 37° C., 12 hours; HPLC, UV 203 nm (FIGS. 3 and 4); products: CK->gypenoside LXXV, F2->gypenoside XVII, Rd->Rb1, F1->notoginsenoside U
Observed Property: conversion of the ginsenoside by GpUGT23 (glycosyltransfer activity), HPLC

| Compound | Measured |
| --- | --- |
| CC(C)=CCC[C@](C)(O)[C@H]1CC[C@]2(C)[C@@H]1[C@H](O)C[C@@H]1[C@@]3(C)CC[C@H](O[C@@H]4O[C@H](CO)[C@@H](O)[C@H](O)[C@H]4O[C@@H]4O[C@H](CO)[C@@H](O)[C@H](O)[C@H]4O)C(C)(C)[C@@H]3CC[C@]12C | did not react |
| CC(C)=CCC[C@](C)(O[C@@H]1O[C@H](CO)[C@@H](O)[C@H](O)[C@H]1O)[C@H]1CC[C@]2(C)[C@@H]1[C@H](O)C[C@@H]1[C@@]3(C)CC[C@H](O)C(C)(C)[C@@H]3CC[C@]12C | converted |
| CC(C)=CCCC(C)(O)[C@H]1CC[C@]2(C)[C@@H]1[C@H](O)C[C@@H]1[C@@]3(C)CC[C@H](O)C(C)(C)[C@@H]3CC[C@]12C (stereo in doubt) | did not react |
| CC(C)=CCC[C@](C)(O)[C@H]1CC[C@]2(C)[C@@H]1[C@H](O)C[C@@H]1[C@@]3(C)CC[C@H](O)C(C)(C)[C@@H]3[C@@H](O[C@@H]3O[C@H](CO)[C@@H](O)[C@H](O)[C@H]3O)C[C@]12C | did not react |
| CC(C)=CCC[C@](C)(O[C@@H]1O[C@H](CO)[C@@H](O)[C@H](O)[C@H]1O)[C@H]1CC[C@]2(C)[C@@H]1[C@H](O)C[C@@H]1[C@@]3(C)CC[C@H](O[C@@H]4O[C@H](CO)[C@@H](O)[C@H](O)[C@H]4O)C(C)(C)[C@@H]3CC[C@]12C | converted |
| CC(C)=CCC[C@](C)(O[C@@H]1O[C@H](CO)[C@@H](O)[C@H](O)[C@H]1O)[C@H]1CC[C@]2(C)[C@@H]1[C@H](O)C[C@@H]1[C@@]3(C)CC[C@H](O[C@@H]4O[C@H](CO)[C@@H](O)[C@H](O)[C@H]4O[C@@H]4O[C@H](CO)[C@@H](O)[C@H](O)[C@H]4O)C(C)(C)[C@@H]3CC[C@]12C | converted |

====

Tested on: UDP-glycosyltransferase GpUGT23
Test: In vitro glycosyltransferase assay of purified recombinant GpUGT23 with ginsenoside substrates and UDP-glucose
Assay type: biochemical, Dolwoe (Gynostemma pentaphyllum)
Conditions: purified GpUGT23 30 μg, ginsenoside 5 mM, UDP-glucose 50 mM, 10 mM PBS pH 7, 37° C., 12 hours; HPLC, UV 203 nm (FIGS. 3 and 4); products: CK->gypenoside LXXV, F2->gypenoside XVII, Rd->Rb1, F1->notoginsenoside U
Observed Property: conversion of the ginsenoside by GpUGT23 (glycosyltransfer activity), HPLC

| Compound | Measured |
| --- | --- |
| CC(C)=CCC[C@](C)(O)[C@H]1CC[C@]2(C)[C@@H]1[C@H](O)C[C@@H]1[C@@]3(C)CC[C@H](O[C@@H]4O[C@H](CO)[C@@H](O)[C@H](O)[C@H]4O)C(C)(C)[C@@H]3CC[C@]12C [Rh2] | did not react |
| CC(C)=CCC[C@](C)(O)[C@H]1CC[C@]2(C)[C@@H]1[C@H](O)C[C@@H]1[C@@]3(C)CC[C@H](O)C(C)(C)[C@@H]3[C@@H](O)C[C@]12C [PPT, protopanaxatriol] | did not react |
